- System: P. pastrois strain yGLY21058
- methodDescription: Fermentability of sugars or sugar alcohols on M agar plate
- Format: cell-based, Pichia pastoris
- reportedConditions: single carbon source 1% w/v, 6 days at 30° C.
measuredParameter: Growth on M agar

Solved entries:
# compound, measuredValue
rows = [
    ("OC[C@H]1O[C@H](O[C@H]2[C@H](O)[C@@H](O)[C@H](O)O[C@@H]2CO)[C@H](O)[C@@H](O)[C@@H]1O", "−"),
    ("O=C1O[C@H](CO)[C@@H](O)[C@H](O)[C@H]1O", "−"),
    ("OC[C@H]1O[C@H](OC[C@H]2O[C@H](O[C@]3(CO)O[C@H](CO)[C@@H](O)[C@@H]3O)[C@H](O)[C@@H](O)[C@@H]2O)[C@H](O)[C@@H](O)[C@H]1O", "++"),
    ("O=C[C@H](O)[C@@H](O)[C@H](O)[C@H](O)CO", "+++"),
    ("O=C[C@H](O)[C@@H](O)[C@H](O)CO", "+"),
    ("O[C@H]1[C@H](O)[C@@H](O)[C@H](O)[C@@H](O)[C@H]1O", "+"),
    ("OC[C@H]1O[C@H](O[C@H]2O[C@H](CO)[C@@H](O)[C@H](O)[C@H]2O)[C@H](O)[C@@H](O)[C@@H]1O", "++"),
    ("O=C(O)[C@H](O)[C@@H](O)[C@H](O)[C@H](O)CO [D-Gluconate]", "+"),
]

Qu. Give Growth on M agar for the following compound: "O=C(O)[C@]1(O)C[C@@H](O)[C@@H](O)[C@H](O)C1"
Ans. −

The values you see were collected from patent US20150299648A1.
